- experimental-target: 1321N1-hP2X2/3 receptor (Homo sapiens, UniProt P56373+Q9UBL9)
- test-description: Calcium ion mobility (FLIPR) in cells stably expressing 1321N1-hP2X2/3 receptors
- assay-setup: calcium signal, agonist at EC80
reported-endpoint: IC50 (µM)
Give bare numbers, in µM.

Example entries begin here.
O=C(Cn1c(=O)c2ccc(C(F)(F)F)nc2n2nccc12)Nc1ccc(F)cn1 | 4.52
Cc1cc(-c2cc3n(CC(=O)Nc4ccc(F)cn4)c(=O)c4ccc(C(F)(F)F)nc4n3n2)c(C)cn1 | 16.7
CC(C)(C)c1cc2n(CC(=O)Nc3ccc(F)cn3)c(=O)c3cccnc3n2n1 | 64.4
N#Cc1cnn2c3nc(C(F)(F)F)ccc3c(=O)n(CC(=O)Nc3ccc(F)cn3)c12 | 3.04
CCc1cc2n(CC(=O)Nc3ccc(F)cn3)c(=O)c3ccc(C(F)(F)F)nc3n2n1 | 25.2

Fill in IC50 for each of the 4 compounds listed.
1. O=C(Cn1c(=O)c2ccc(C(F)(F)F)nc2n2nc(Br)cc12)Nc1ccc(F)cn1
2. CC(C)(C)c1cc2n(CC(=O)Nc3ccc(F)cn3)c(=O)c3ccc(C(F)(F)F)nc3n2n1
3. CC1(c2cc3n(CC(=O)Nc4ccc(F)cn4)c(=O)c4ccc(C(F)(F)F)nc4n3n2)CC1
4. N#Cc1cc2n(CC(=O)Nc3ccc(F)cn3)c(=O)c3ccc(C(F)(F)F)nc3n2n1

[6.36, 14.5, 32.2, 5.63]

---

Please respond with reported fraction unbound at 6 h, 5 μM for every item in the list.
- test-description: Plasma protein binding rate (mouse)
- Assay type: in vitro ADME
- assay-setup: 37° C. 6 h
Answers are plain numbers.

CCc1cc2n(CC(=O)Nc3ccc(F)cn3)c(=O)c3ccc(C(F)(F)F)nc3n2n1 | 0.043

Please give fraction unbound at 6 h, 5 μM for each item listed below.
1. N#Cc1cc2n(CC(=O)Nc3ccc(F)cn3)c(=O)c3ccc(C(F)(F)F)nc3n2n1
2. O=C(Cn1c(=O)c2ccc(C(F)(F)F)nc2n2nccc12)Nc1ccc(F)cn1
3. N#Cc1cnn2c3nc(C(F)(F)F)ccc3c(=O)n(CC(=O)Nc3ccc(F)cn3)c12
4. O=C(Cn1c(=O)c2ccc(C(F)(F)F)nc2n2nc(Br)cc12)Nc1ccc(F)cn1

[0.162, 0.084, 0.256, 0.044]

---

- experimental-target: 1321N1-hP2X3 receptor (Homo sapiens, UniProt P56373)
- Sequence (P56373 1-397): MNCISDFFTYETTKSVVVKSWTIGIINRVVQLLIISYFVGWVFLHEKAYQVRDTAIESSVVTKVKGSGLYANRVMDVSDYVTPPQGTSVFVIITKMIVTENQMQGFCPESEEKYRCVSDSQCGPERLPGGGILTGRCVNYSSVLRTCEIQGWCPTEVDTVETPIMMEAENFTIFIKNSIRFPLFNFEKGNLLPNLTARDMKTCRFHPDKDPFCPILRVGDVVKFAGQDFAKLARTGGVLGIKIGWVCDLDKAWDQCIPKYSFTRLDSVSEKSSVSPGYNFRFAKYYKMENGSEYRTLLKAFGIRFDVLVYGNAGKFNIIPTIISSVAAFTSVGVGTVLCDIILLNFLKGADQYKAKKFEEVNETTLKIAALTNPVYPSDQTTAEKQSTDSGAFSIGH
- test-description: Calcium ion mobility (FLIPR) in cells stably expressing 1321N1-hP2X3 receptors
- assay-setup: calcium signal, agonist at EC80
Assignment: determine reported IC50 for the given compounds.
One number for each entry, in nM.

O=C(Cn1c(=O)c2ccc(C(F)(F)F)nc2n2nc(C(=O)N3CCC3)cc12)Nc1ccc(F)cn1 [Example 74] | 203
O=C(Cn1c(=O)c2ccc(C(F)(F)F)nc2n2nc(Cl)cc12)Nc1ccc(F)cn1 [Example 79] | 34.7
O=C(Cn1c(=O)c2ccc(C(F)(F)F)nc2n2nc(C3CCCCC3)cc12)Nc1ccc(F)cn1 [Example 62] | 385

Okay, next one:
Using the record for O=C(Cn1c(=O)c2ccc(C(F)(F)F)nc2n2nc(C3CC3)cc12)Nc1ccc(F)cn1 [Example 35] , report its IC50.
77.7

---

- test-description: Metabolic stability in liver microsome (human)
- Assay type: in vitro ADME
- assay-setup: liver microsomes; human liver microsome 0.5 mg/mL, compound 1 μM, NADPH/UDPGA
Consider the following molecules; for each one, report its half-life at 1 μM.
Your answer should be a number followed by the unit of measure.

N#Cc1cc2n(CC(=O)Nc3ccc(F)cn3)c(=O)c3ccc(C(F)(F)F)nc3n2n1 | 23.4 h

Look up half-life at 1 μM for this molecule: O=C(Cn1c(=O)c2ccc(C(F)(F)F)nc2n2nccc12)Nc1ccc(F)cn1
14.7 h

---

- experimental-target: CYP450 enzyme isoform 1A2 (Homo sapiens, UniProt P05177)
- Construct: single-point method using human liver microsome incubation system
- Sequence (P05177 whole entry, canonical isoform): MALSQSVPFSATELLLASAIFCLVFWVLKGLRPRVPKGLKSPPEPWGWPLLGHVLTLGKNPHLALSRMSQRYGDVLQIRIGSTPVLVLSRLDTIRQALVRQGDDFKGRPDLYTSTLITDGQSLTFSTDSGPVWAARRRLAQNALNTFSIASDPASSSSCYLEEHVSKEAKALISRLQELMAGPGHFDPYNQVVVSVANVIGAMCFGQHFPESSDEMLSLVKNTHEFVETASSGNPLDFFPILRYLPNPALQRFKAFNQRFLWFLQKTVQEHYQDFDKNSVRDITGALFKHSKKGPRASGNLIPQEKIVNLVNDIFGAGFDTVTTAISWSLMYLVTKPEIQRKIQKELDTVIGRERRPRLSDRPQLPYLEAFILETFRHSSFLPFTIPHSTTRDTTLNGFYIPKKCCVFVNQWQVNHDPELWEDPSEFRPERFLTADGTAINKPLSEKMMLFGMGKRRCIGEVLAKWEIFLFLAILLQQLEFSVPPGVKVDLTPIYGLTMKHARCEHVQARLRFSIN
- test-description: CYP enzyme single-point inhibition assay, 1A2
- assay-setup: human liver microsome, single-point method
Exercise: state measured IC50 for each of the compounds provided.
One number for each entry, in µM.

CCc1cc2n(CC(=O)Nc3ccc(F)cn3)c(=O)c3ccc(C(F)(F)F)nc3n2n1 | 24.9

May I ask what IC50 has been recorded for O=C(Cn1c(=O)c2ccc(C(F)(F)F)nc2n2nc(Br)cc12)Nc1ccc(F)cn1 ?
72.1

---

Assign pIC50 to each entry below.
- experimental-target: hERG potassium channel (Homo sapiens, UniProt Q12809)
- Sequence (Q12809 whole entry): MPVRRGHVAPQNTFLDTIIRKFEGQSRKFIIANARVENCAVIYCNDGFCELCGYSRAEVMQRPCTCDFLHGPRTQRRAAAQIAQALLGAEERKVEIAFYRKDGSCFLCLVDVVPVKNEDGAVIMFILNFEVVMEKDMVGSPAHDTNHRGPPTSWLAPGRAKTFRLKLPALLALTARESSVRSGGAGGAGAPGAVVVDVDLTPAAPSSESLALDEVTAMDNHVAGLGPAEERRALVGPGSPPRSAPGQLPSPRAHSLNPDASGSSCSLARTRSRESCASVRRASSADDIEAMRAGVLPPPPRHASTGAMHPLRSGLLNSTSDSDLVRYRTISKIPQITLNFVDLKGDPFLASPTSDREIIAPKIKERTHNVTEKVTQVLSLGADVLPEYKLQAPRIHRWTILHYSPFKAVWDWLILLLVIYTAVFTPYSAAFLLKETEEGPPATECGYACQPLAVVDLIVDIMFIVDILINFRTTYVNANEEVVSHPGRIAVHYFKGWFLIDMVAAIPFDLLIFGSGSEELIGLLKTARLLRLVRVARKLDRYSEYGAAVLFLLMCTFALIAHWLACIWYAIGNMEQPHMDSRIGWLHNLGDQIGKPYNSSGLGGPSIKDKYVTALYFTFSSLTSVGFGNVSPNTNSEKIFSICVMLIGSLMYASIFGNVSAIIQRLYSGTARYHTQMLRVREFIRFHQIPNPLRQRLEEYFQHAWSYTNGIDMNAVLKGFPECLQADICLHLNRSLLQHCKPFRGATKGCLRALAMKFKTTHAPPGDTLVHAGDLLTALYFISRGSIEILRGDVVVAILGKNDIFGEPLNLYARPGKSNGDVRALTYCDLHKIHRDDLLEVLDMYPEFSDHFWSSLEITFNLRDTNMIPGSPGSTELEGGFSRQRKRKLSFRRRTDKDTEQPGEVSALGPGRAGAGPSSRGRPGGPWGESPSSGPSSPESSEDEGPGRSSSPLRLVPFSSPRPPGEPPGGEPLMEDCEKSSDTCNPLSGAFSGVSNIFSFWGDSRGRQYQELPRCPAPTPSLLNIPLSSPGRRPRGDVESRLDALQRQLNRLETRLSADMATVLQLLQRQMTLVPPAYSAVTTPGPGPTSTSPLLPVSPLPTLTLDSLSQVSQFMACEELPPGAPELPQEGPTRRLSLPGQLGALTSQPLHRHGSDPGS
- test-description: hERG potassium channel inhibition activity assay (Qpatch, CHO-hERG cells)
- assay-setup: Qpatch whole-cell, highest test concentration 40 μM
pIC50: −log10 of the molar value.

N#Cc1cnn2c3nc(C(F)(F)F)ccc3c(=O)n(CC(=O)Nc3ccc(F)cn3)c12 [Example 80] | < 4.70

Hello, I would appreciate it if you could give pIC50 for each entry below.
1. O=C(Cn1c(=O)c2ccc(C(F)(F)F)nc2n2nccc12)Nc1ccc(F)cn1 [Example 78]
2. N#Cc1cc2n(CC(=O)Nc3ccc(F)cn3)c(=O)c3ccc(C(F)(F)F)nc3n2n1 [Example 68]
3. O=C(Cn1c(=O)c2ccc(C(F)(F)F)nc2n2nc(Br)cc12)Nc1ccc(F)cn1 [Example 61-A]

1: < 5.00; 2: 4.74; 3: < 5.00

---

Kindly state fraction unbound at 6 h, 5 μM for each of the entries shown.
- test-description: Plasma protein binding rate (human)
- Type: in vitro ADME
- assay-setup: 37° C. 6 h
Give bare numbers.

Field: example entries. Status: answers known.
O=C(Cn1c(=O)c2ccc(C(F)(F)F)nc2n2nc(Br)cc12)Nc1ccc(F)cn1 [Example 61-A] | 0.016
N#Cc1cc2n(CC(=O)Nc3ccc(F)cn3)c(=O)c3ccc(C(F)(F)F)nc3n2n1 [Example 68] | 0.066
N#Cc1cnn2c3nc(C(F)(F)F)ccc3c(=O)n(CC(=O)Nc3ccc(F)cn3)c12 [Example 80] | 0.135

Need fraction unbound at 6 h, 5 μM for each of these compounds.
1. CCc1cc2n(CC(=O)Nc3ccc(F)cn3)c(=O)c3ccc(C(F)(F)F)nc3n2n1 [Example 34]
2. O=C(Cn1c(=O)c2ccc(C(F)(F)F)nc2n2nccc12)Nc1ccc(F)cn1 [Example 78]

[0.015, 0.103]

---

For each entry below, report its Cmax value.
- test-description: Pharmacokinetic assay in Balb/C mice
- Type: in vivo
- assay-setup: male, mouse, po, p.o. 5 mg/kg, plasma, 0.5% CMC-Na (1% Tween 80), read-out: Plasma concentration Cmax
Give bare numbers, in ng/mL.

Use the examples below as a reference point.
O=C(Cn1c(=O)c2ccc(C(F)(F)F)nc2n2nc(Br)cc12)Nc1ccc(F)cn1 | 3430
O=C(Cn1c(=O)c2ccc(C(F)(F)F)nc2n2nccc12)Nc1ccc(F)cn1 | 1290
N#Cc1cc2n(CC(=O)Nc3ccc(F)cn3)c(=O)c3ccc(C(F)(F)F)nc3n2n1 | 1830
CC(C)(C)c1cc2n(CC(=O)Nc3ccc(F)cn3)c(=O)c3ccc(C(F)(F)F)nc3n2n1 | 3550

Fill in: Cmax of CCc1cc2n(CC(=O)Nc3ccc(F)cn3)c(=O)c3ccc(C(F)(F)F)nc3n2n1 is ___
2360

---

- test-description: Pharmacokinetic assay in rats
- Format: in vivo
- assay-setup: male, rat, po; SD rats, p.o. 5 mg/kg, plasma, 0.5% CMC-Na (1% Tween 80); read-out: Average residence time MRT0-∞
Answer each item with its documented MRT inf.
Kindly format the answer as number then unit.

N#Cc1cc2n(CC(=O)Nc3ccc(F)cn3)c(=O)c3ccc(C(F)(F)F)nc3n2n1 | 3.5 h
CCc1cc2n(CC(=O)Nc3ccc(F)cn3)c(=O)c3ccc(C(F)(F)F)nc3n2n1 | 6.2 h
O=C(Cn1c(=O)c2ccc(C(F)(F)F)nc2n2nc(Br)cc12)Nc1ccc(F)cn1 | 5.8 h
O=C(Cn1c(=O)c2ccc(C(F)(F)F)nc2n2nccc12)Nc1ccc(F)cn1 | 3.7 h

Now consider the entry below.
Item N#Cc1cnn2c3nc(C(F)(F)F)ccc3c(=O)n(CC(=O)Nc3ccc(F)cn3)c12 has what recorded MRT inf?
13.6 h
